Measured protein stability index accompanies every entry in the list below.
experiment: protein stability index of a GFP-peptide fusion (yeast GPS) (PSI 1-4); higher = more stable; sorted into four equal gates, so the index is relative within each strain; conditions: doa10∆
Form rule: numeric answer, no unit written next to it.

{"MONOMER_SEQUENCE": "LTLLERKWVIFITKHLP [NUT1]", "protein stability index": 2.59}

Turning now to a further record.
Task item: Quick one: protein stability index of KTKAMSLSIEENIPVAL [POP1] ?
Reply: 2.92

* * *

test: protein stability index of a GFP-peptide fusion (yeast GPS) (PSI 1-4); higher = more stable; sorted into four equal gates, so the index is relative within each strain; conditions: san1∆
Measured protein stability index accompanies every entry in the list below.
Form rule: numeric answer, no unit written next to it.

As a guide, the following entries are already answered.
{"MONOMER_SEQUENCE": "KVVYIQRRSWRQYVGQL [DIS3]", "protein stability index": 3.02}
{"MONOMER_SEQUENCE": "TLSEPVQGELKPTVILK [FAS1]", "protein stability index": 2.08}
{"MONOMER_SEQUENCE": "TLERVHLSYCSNLTIYP [GRR1]", "protein stability index": 2.99}
{"MONOMER_SEQUENCE": "SQISPEKQTPNKKDKKK [RPN1]", "protein stability index": 3.09}
{"MONOMER_SEQUENCE": "LLTVEEGQLKPGDGSSY [RPC25]", "protein stability index": 2.83}
{"MONOMER_SEQUENCE": "SDEEEVTEMSNNANVLG [BRR2]", "protein stability index": 2.83}

Task item: Quick one: protein stability index of EDTLSGYDPIVSTRAID [PRP28] ?
Reply: 3.13

Task item: Follow-up entry: KPSSPPDVKSLVQLSTM [SIR4]
Reply: 3.12

Task item: Follow-up entry: YFLVLSPYGNLQNDLIH [RPN5]
Reply: 2.64

Task item: Follow-up entry: VAGAGAASGAAAAGGDA [RPP1B]
Reply: 3.22

Task item: Follow-up entry: ITHNTNITDNLFQELSK [GRR1]
Reply: 3.62

Hello, the source for this data is the supplement of paper PMC9732359, in case you need it.
